system: Wolbachia pipientis; assay: Anti-Wolbachia Cell-Based Screen; assay type: functional; set-up: scale not given: in the data most compounds retested in dose-response had high values; conditions: 5 µM
About 13,000 (27%) of roughly 48,000 compounds showed an effect of 50% or more. The list shows a part of the results.

[
  {
    "compound": "CCC(Cn1ccc2[nH]c(=O)c(C#N)cc2c1=O)OC (stereo unspecified)",
    "studyTarget": "Wolbachia pipientis",
    "quantityUnit": "%",
    "Percent Effect": -23.91
  },
  {
    "compound": "CCOc1cccc(CCNC(=O)Cc2cccc(O)c2)n1",
    "studyTarget": "Wolbachia pipientis",
    "quantityUnit": "%",
    "Percent Effect": 19.48
  },
  {
    "compound": "CC(C)(O)CCc1cccc(C(=O)NCC2CN(S(C)(=O)=O)CCO2)c1 (stereo unspecified)",
    "studyTarget": "Wolbachia pipientis",
    "quantityUnit": "%",
    "Percent Effect": -12.96
  },
  {
    "compound": "Cn1c(C2CC2)nc2cc(NC(=O)C3(O)CCCC3)ccc21",
    "studyTarget": "Wolbachia pipientis",
    "quantityUnit": "%",
    "Percent Effect": -3.273
  },
  {
    "compound": "CSc1cccc(CNC(=O)C2CC(=O)N(CCN(C)C)C2)c1 (stereo unspecified)",
    "studyTarget": "Wolbachia pipientis",
    "quantityUnit": "%",
    "Percent Effect": 8.737
  },
  {
    "compound": "O=C(Cc1ccccc1)NCCNCc1cccc(O)c1",
    "studyTarget": "Wolbachia pipientis",
    "quantityUnit": "%",
    "Percent Effect": 87.97
  }
]
